Field: TGI. Provide a value for each of the compounds that follow.
test system: HOP-62 NSCLC; experiment: NCI tumour cell line growth inhibition, 48 h

CCn1c(-c2nonc2N)nc2c(C#CC(C)(C)O)ncc(OCC3CCNCC3)c21 : > 25 µM
CCCCCC(=O)OCC1(CO)C/C(=C/CC(C(C)C)C(C)C)C(=O)O1 (stereo not drawn) : > 75 µM
CO/C=C(/C(=O)OC)c1ccccc1[C@H]1C[C@@H]1c1ccccc1 : > 100 µM
COc1ccc(C(OCC2OC(n3ccc(Oc4c(F)c(F)c(F)c(F)c4F)nc3=O)CC2OP(OCCC#N)N(C(C)C)C(C)C)(c2ccccc2)c2ccc(OC)cc2)cc1 (stereo not drawn) : > 100 µM
BrCC[N+]12CCCN1CCC2 : > 70.5 µM

Hi team, please reply with TGI for each item in this list.
1. COC(=O)C([O][Ge]([CH3])([CH3])[CH3])c1ccccc1 (stereo not drawn)
2. CCc1cc(Nc2nccc(-c3c(-c4ccc(OC)c(C(=O)Nc5c(F)cccc5F)c4)nc4ccccn34)n2)c(OC)cc1N1CCC(N2CCN(S(C)(=O)=O)CC2)CC1
3. CCOC(=O)CCC(NC(=O)c1ccc(Nc2nc3cc(N)cc(N)c3nc2-c2ccccc2)cc1)C(=O)OCC (stereo not drawn)

A.
1. > 100 µM
2. > 100 µM
3. > 63 µM

###

Exercise: for every item that follows, state its recorded TGI.
tested on: EKVX NSCLC; experiment: NCI tumour cell line growth inhibition, 48 h

Nc1ccc(C(=O)N/C(=C\c2ccc3c(c2)OCO3)c2nc3ccc4c(c3[nH]2)C(=O)c2ccccc2C4=O)cc1 : > 100 µM
CCC(C)Cn1c(C)nc2c1C(=O)c1ccccc1C2=O (stereo not drawn) : > 100 µM

The record that follows has no TGI shown yet.
Q. Requested field: TGI. Item: "O=C1/C(=C/c2ccc(Cl)cc2)COc2ccc(Br)cc21"
A. > 100 µM

###

tested on: UO-31 renal; experiment: NCI tumour cell line growth inhibition, 48 h
measurement_type: TGI

Recorded TGI, per entry:
Clc1cc(-c2csc(Cl)c2)cs1 : > 100 µM
COc1ccc(OC)c([N+](=O)[O-])c1-c1nc2sc(C)cn2c1/C=N/N=C(N)N : > 100 µM
CC(C)S(=O)(=O)ON1C(=O)c2ccc([N+](=O)[O-])cc2C1=O : > 100 µM
Cc1nc2cccc(F)c2c(=O)n1-c1nnc(C2CC2)s1 : > 10 µM

Okay, now this molecule:
Q. Query the reported TGI for UO-31 renal; item: CCOC(=O)N1c2c(c3ccccc3n2C(=O)OCC)C(=O)C(OC)N1C(=O)OCC (stereo not given)
A. > 100 µM

###

test system: A549 NSCLC; test: NCI tumour cell line growth inhibition, 48 h
measurement_type: TGI

In the examples that follow, each entry is paired with its recorded TGI.
Nc1cc2ccncc2c2ccccc12 : > 100 µM
Cc1nc2cccc(F)c2c(=O)n1-c1nnc(C2CC2)s1 : > 10 µM
CSC(=N/N=C(\C)c1ccc(S(=O)(=O)N(C)c2ccccc2)cc1)SC : > 100 µM

Would you mind giving TGI for every molecule in the list below?
1. COc1nc2ncc([C@@H](O)[C@H](O)CO)nc2c(=O)[nH]1
2. CN1C(=O)[C@](C)(Cc2ccc(F)cc2)N(C(=O)OC(C)(C)C)[C@@H]1C(C)(C)C
3. CCC1C(=O)OCc2c1cc1n(c2=O)Cc2ccccc2-1 (stereo unspecified)

A.
> 100 µM
> 100 µM
> 100 µM

###

tested on: U251 CNS; test: NCI tumour cell line growth inhibition, 48 h
Assign TGI to each entry below.

O=C1NC(=Nc2ccccc2Cl)SC1C(=O)Nc1ccc([N+](=O)[O-])cc1[N+](=O)[O-] (stereo unspecified) : > 100 µM
Cc1nc2cccc(F)c2c(=O)n1-c1nnc(C2CC2)s1 : > 10 µM
Cc1nc(=O)n2c(c1C(=O)Nc1ccc(Cl)cc1)NCCC2 : > 100 µM
Cc1cccc(-c2cc(=O)c3cc(C)cnc3[nH]2)c1 : > 100 µM
Cn1cc(C2=C(c3cn(C)c4cc(Cl)ccc34)C(=O)NC2=O)c2ccccc21 : > 25 µM

Next up:
Q. Consider the compound shown here: CC(=O)OC1COC(n2c(N)c(C#N)c(-c3ccccc3)c(C#N)c2=S)C(OC(C)=O)C1OC(C)=O (stereo unspecified) What is its recorded TGI?
A. > 100 µM

###

tested on: HOP-62 NSCLC; assay: NCI tumour cell line growth inhibition, 48 h
measurement_type: TGI

CN1CCN(Cc2ccc(NC(=O)c3cncc(C#Cc4cncc5[nH]ncc45)c3)cc2C(F)(F)F)CC1 : 4.86 µM
O=C(O)CSc1nnc(COc2ccccc2)n1-c1ccccc1 : > 100 µM
C=C(C)[C@@H]1CC[C@@H]2C(=CC[C@]3(C)C([C@H](C)CC/C=C(/C)C(=O)O)CC[C@@]23C)[C@@]1(C)CCC(=O)O (stereo partly drawn) : > 100 µM

For every item in the list below, what is its measured TGI?
1. COC1OC(=O)C(OC)C(OC)C1OC (stereo not drawn)
2. CC(C)(C)C1=CC(O)(c2c3ccccc3c(C3(O)C=C(C(C)(C)C)C(=O)C(C(C)(C)C)=C3)c3ccccc23)C=C(C(C)(C)C)C1=O
3. CC(=O)O[C@H]1Cc2c([nH]c3ccccc23)[C@@H](c2ccc(Cl)cc2)N1C(=O)CCNC(C)(C)C
4. CC1CC2OC(=N)C1(C#N)C2(C#N)C#N (stereo not drawn)
5. O=S1(=O)OCCOS(=O)(=O)C1S(=O)(=O)c1cccc2ccccc12
6. Cn1cc(C2=C(c3cn(C)c4cc(Cl)ccc34)C(=O)NC2=O)c2ccccc21
7. CN(C)/C=C/C(=O)c1cccc(C(=O)/C=C/N(C)C)n1
8. CCN(CC)CCC1(C(=O)OC)SCCc2ccc(C)cc21 (stereo not drawn)

A.
["> 100 µM", "> 100 µM", "7.07 µM", "35.2 µM", "> 100 µM", "> 25 µM", "> 100 µM", "> 100 µM"]

I have 2 compounds here; please give me TGI for each one.
1. C=CCN1C(=O)C/C(=C2/CCC(=O)N2CC=C)C1=O
2. CCOc1c(Cc2ccccc2)c(=O)n2c3ccccc3n3c(=O)n(C)c(=O)c1c23

A.
1. > 100 µM
2. > 100 µM

###

test system: SW-620 colon; test: NCI tumour cell line growth inhibition, 48 h
measurement_type: TGI

Recorded results for 2 compounds are shown here.
CC[C@@]1(O)C(=O)N(CCN(C)C)Cc2c1cc1n(c2=O)Cc2cc3ccccc3nc2-1 : > 100 µM
Fc1sc2c(c1F)C1CCC2C1 (stereo not drawn) : > 100 µM

Proceeding to the next compound to report its TGI.
Q. Give TGI (SW-620 colon) of the following compound: CC1CC(=O)CC[C@@H]1OCc1ccccc1 (stereo partly drawn)
A. > 100 µM

###

tested on: UACC-62 melanoma; experiment: NCI tumour cell line growth inhibition, 48 h
measurement_type: TGI

CN(C)CC1CCCCCCCCCCC1=O (stereo not drawn) : > 100 µM

List the reported TGI of each molecule below.
1. Cc1cccc(-c2cc(=O)c3cc(C)cnc3[nH]2)c1
2. Cn1cc(C2=C(c3cn(C)c4cc(Cl)ccc34)C(=O)NC2=O)c2ccccc21

A.
> 100 µM
> 25 µM

###

test system: PC-3 prostate; assay: NCI tumour cell line growth inhibition, 48 h
Please go through the items and note down their TGI.

Below, each entry is followed by its recorded TGI result.
O=S1(=O)OCCOS(=O)(=O)C1S(=O)(=O)c1cccc2ccccc12 : > 100 µM
COC(=O)CCCCCCCCC(=O)c1c(C)[nH]c(/C=C2\N=C(c3ccc[nH]3)C=C2OC)c1C : > 100 µM
C/C(=C\c1ccccc1)n1c(=O)cc(C)n1C : > 100 µM
COc1cc(OC)cc(-c2nc3ccccc3c(=O)[nH]2)c1 : > 100 µM

# map each molecule to its TGI
1. O=C1CSC(c2cc3cc(Br)ccc3nc2Cl)N1c1ccc(F)c(Cl)c1 (stereo unspecified)
2. c1ccc(-c2nn(-c3ccccc3)[n+](-c3ccccc3-c3ccccc3)n2)cc1

A.
1. > 50 µM
2. 6.18 µM

###

test system: NCI-H460 lung; test: NCI tumour cell line growth inhibition, 48 h
measurement_type: TGI

For every listed record, write down its TGI.
1. COc1cc(C)c(S(=O)(=O)N(CCCN)OCCCN)c(C)c1C
2. O=C(OCC(OC(=O)c1ccccc1)C1CC(C(O)C2CCCCC2)C(=O)O1)c1ccccc1 (stereo unspecified)

A.
1: > 100 µM; 2: > 100 µM

Below is a list of compounds. For each, state its recorded TGI.
1. Clc1ccc(C2=NNC(c3cccc(Cl)c3)C2)cc1 (stereo unspecified)
2. NC(=O)c1nnc2c(F)cccc2c1N
3. CN(C)/C=C/C(=O)c1cccc(C(=O)/C=C/N(C)C)n1
4. CC[C@@]1(O)C(=O)N(CCN(C)C)Cc2c1cc1n(c2=O)Cc2cc3ccccc3nc2-1

A.
1: > 100 µM; 2: > 100 µM; 3: > 100 µM; 4: > 83.1 µM
